# methodSummary: Microsomal stability assay, human liver microsomes
# Format: in vitro ADME
# conditionNotes: pH 7.4; human liver microsomes 0.5 mg/mL, 1 mM NADPH, 1 μM compound; read-out: Microsomal Stability t1/2 Human
Record form. Attribute: half-life at 1 μM. Fill in for each entry.
Form entry: value (min) — number only.

Input: Entry "CNC(=O)c1cccc(Cn2nc(C)c(NC(=O)c3ccc(COc4ccc(C(F)(F)F)cc4)cc3)c2C)c1" needs its half-life at 1 μM filled in; supply it.
Output: 34

Input: Write down half-life at 1 μM measured for item "CNC(=O)c1cccc(Cn2nc(C)c(NC(=O)c3ccc(COc4ccc(C(F)(F)F)cc4C)cc3)c2C)c1"
Output: 53

Input: Consider the compound "CNC(=O)c1cccc(Cn2nc(C)c(NC(=O)c3ccc(COc4ccc(C(F)(F)F)cc4C)cc3)c2C)n1" and give its recorded half-life at 1 μM.
Output: 47

Input: # return recorded half-life at 1 μM for input "CNC(=O)c1ccnc(Cn2nc(C)c(NC(=O)c3ccc(COc4ccc(C(F)(F)F)cc4C)cc3)c2C)c1"
Output: 57

Input: // fetch half-life at 1 μM given entry "CNC(=O)c1cc(Cn2nc(C)c(NC(=O)c3ccc(COc4ccc(C(F)(F)F)cc4C)cc3)c2C)ccn1"
Output: 89

Input: Return the recorded half-life at 1 μM value; entry: "CNC(=O)c1cc(Cn2nc(C)c(NC(=O)c3ccc(COc4ccc(C(F)(F)F)cc4)cc3)c2C)ccn1"
Output: 112

Input: Please indicate half-life at 1 μM recorded for "CC(=O)Nc1cccc(Cn2nc(C)c(NC(=O)c3ccc(COc4ccc(C(F)(F)F)cc4C)cc3)c2C)c1"
Output: 14

Input: Specify measured half-life at 1 μM for "CNC(=O)c1ccnc(Cn2nc(C)c(NC(=O)c3ccc(COc4ccc(C(F)(F)F)cc4)cc3)c2C)c1" .
Output: 65

Input: Using known records, supply half-life at 1 μM for "CNC(=O)c1cncc(Cn2nc(C)c(NC(=O)c3ccc(COc4ccc(C(F)(F)F)cc4C)cc3)c2C)c1"
Output: 74

Input: Fill in half-life at 1 μM for record "CNC(=O)c1cccc(Cn2nc(C)c(NC(=O)c3ccc(COc4ccc(C(F)(F)F)cc4)cc3)c2C)n1"
Output: 47

Input: Give half-life at 1 μM for "CC(=O)Nc1cccc(Cn2nc(C)c(NC(=O)c3ccc(COc4ccc(C(F)(F)F)cc4)cc3)c2C)c1"
Output: 8.3

Input: Specify half-life at 1 μM for "CNC(=O)c1cncc(Cn2nc(C)c(NC(=O)c3ccc(COc4ccc(C(F)(F)F)cc4)cc3)c2C)c1" and stop.
Output: 82

---

# methodSummary: Plasma stability assay, mouse plasma
# Type: in vitro ADME
# conditionNotes: 37° C., 24 h
# Experimental: The plasma stability assay was performed in triplicate by incubating a compound in normal mouse and human plasma at 37° C. […] The supernatants were collected and analyzed by LC-MS/MS to determine the remaining percentage at various time points. Quantification and analysis of compounds in biological samples were carried out on an AB Sciex QTrap 5500 mass spectrometer coupled with an Agilent 1260 Infinity HPLC. […]
quantityMeasured: Plasma Stability (% remaining, 6 h/24 h) Mouse

CNC(=O)c1cc(Cn2nc(C)c(NC(=O)c3ccc(COc4ccc(C(F)(F)F)cc4C)cc3)c2C)ccn1	—/84%
CNC(=O)c1cccc(Cn2nc(C)c(NC(=O)c3ccc(COc4ccc(C(F)(F)F)cc4C)cc3)c2C)n1	—/96%
CNC(=O)c1cc(Cn2nc(C)c(NC(=O)c3ccc(COc4ccc(C(F)(F)F)cc4)cc3)c2C)ccn1	—/91%
CNC(=O)c1cccc(Cn2nc(C)c(NC(=O)c3ccc(COc4ccc(C(F)(F)F)cc4C)cc3)c2C)c1	93%
CNC(=O)c1cccc(Cn2nc(C)c(NC(=O)c3ccc(COc4ccc(C(F)(F)F)cc4)cc3)c2C)n1	—/99%

// next entry
Input: # return recorded Plasma Stability (% remaining, 6 h/24 h) Mouse for entry "CC(=O)Nc1cccc(Cn2nc(C)c(NC(=O)c3ccc(COc4ccc(C(F)(F)F)cc4C)cc3)c2C)c1"
Output: 0.1%

---

# methodSummary: Plasma stability assay, human plasma
# Assay type: in vitro ADME
# conditionNotes: 37° C., 24 h
quantityMeasured: Plasma Stability (% remaining, 6 h/24 h) Human

CNC(=O)c1ccnc(Cn2nc(C)c(NC(=O)c3ccc(COc4ccc(C(F)(F)F)cc4C)cc3)c2C)c1	—/98%
CNC(=O)c1ccnc(Cn2nc(C)c(NC(=O)c3ccc(COc4ccc(C(F)(F)F)cc4)cc3)c2C)c1	—/97%
CNC(=O)c1cccc(Cn2nc(C)c(NC(=O)c3ccc(COc4ccc(C(F)(F)F)cc4C)cc3)c2C)n1	—/100%
CNC(=O)c1cccc(Cn2nc(C)c(NC(=O)c3ccc(COc4ccc(C(F)(F)F)cc4)cc3)c2C)n1	—/100%

Just for reference, patent US10357477B2 is where these values come from.
